Reported sensor-assay potency score (higher = more potent) is given for each of the following sequences.
EXPERIMENTAL_TARGET: NEFH
EXPERIMENT_SUMMARY: pooled miR-30 sensor sort-seq; sequence = guide strand; note: reference of the scale not given here
SETTINGS: shRNA
PARAMETER_MEASURED: sensor-assay potency score (higher = more potent)

INPUT_SEQUENCE | ENDPOINT_VALUE
TATCTCTATATCCAGAGCCATC | -1.97
TTCGACAGCAGGTTCCTTCTTC | 0.393
TAAGCTATCATAATTGTCCATC | -0.916
TTTTTTCTTATCTTCAGCCTCT | 0.587
TTTTCTTATCTTCAGCCTCTTC | -0.582
TACCTCTGTCTTTTCTTTGGGT | 0.0672

---

EXPERIMENTAL_TARGET: TRO
EXPERIMENT_SUMMARY: pooled miR-30 sensor sort-seq; sequence = guide strand
SETTINGS: shRNA
PARAMETER_MEASURED: sensor-assay potency score (higher = more potent)

INPUT_SEQUENCE | ENDPOINT_VALUE
TAGTATTAGATGCACTGCCAAA | -1.27
TAAAATGGCCACATCTCGCGGT | 0.238
TTGAGTGCACTGCCAAAGCTGA | -0.944
TTGATGGGGATCTTTGTCTGGT | -0.592
TTAGTAATAGTCTTTATAGGGG | -0.72
TTGGTCAGCATTTGGAGTCTGG | 0.322
TTGGGTGTGTCCTTGGTCGTTC | 0.127
TTTCATCTTGCTAGTCTCGTGG | 0.184
TTCATCTTGCTAGTCTCGTGGT | 0.132
TTGAGCACACTGCCAAAGCTGG | -0.914

---

EXPERIMENTAL_TARGET: TTLL3
EXPERIMENT_SUMMARY: pooled miR-30 sensor sort-seq; sequence = guide strand
SETTINGS: shRNA
Listed sequences paired with reported sensor-assay potency score (higher = more potent)
PARAMETER_MEASURED: sensor-assay potency score (higher = more potent)

INPUT_SEQUENCE | EXPERIMENTAL_TARGET | ENDPOINT_VALUE
TTGGATTGTAAAGATCTTCTTC | TTLL3 | 0.486
TAGCTGTCGCGGTAGAACCACA | TTLL3 | -1.71
TAAATCATCGAAGTCGAACAGC | TTLL3 | -0.665
TACTTCTGCACCACCCACTTGC | TTLL3 | -0.25
TTTATTTGGTGTTGGATCCAGG | TTLL3 | -0.616

---

EXPERIMENTAL_TARGET: PRPS2
EXPERIMENT_SUMMARY: pooled miR-30 sensor sort-seq; sequence = guide strand
SETTINGS: shRNA
Use 1.0 when the recorded sensor-assay potency score (higher = more potent) is no lower than -0.9; use 0.0 when it is lower.

INPUT_SEQUENCE | EXPERIMENTAL_TARGET | ASSIGNED_CATEGORY
TATTTATTCTGGAAATAGCTGG | PRPS2 | 1.0
TGTCCTTTTTATCTTGTCGGGC | PRPS2 | 1.0
TTCTGGAAATAGCTGGTCCAGA | PRPS2 | 0.0
TTTCATTTTGTCCTCTTGCGGA | PRPS2 | 1.0
TTGTCCTTTTTATCTTGTCGGG | PRPS2 | 0.0

---

EXPERIMENTAL_TARGET: IQCF1
EXPERIMENT_SUMMARY: pooled miR-30 sensor sort-seq; sequence = guide strand
SETTINGS: shRNA
The entries below come with measured sensor-assay potency score (higher = more potent) values attached.
PARAMETER_MEASURED: sensor-assay potency score (higher = more potent)

INPUT_SEQUENCE | ENDPOINT_VALUE
TTGGCTGTGACTCTGTACTGGC | -0.0836
TTTGAGGGTTCCTTCGTCTTTT | -0.864
TAGCCTCTGCCTTTGACTCTGC | -0.296
TACCGTATCTTTGTCAGAGAGC | -0.874
TTTCTCATTGGCATTGTCCACT | -0.377
TTGAGCACCTGGCAATAGCGTC | -1.02
TTCTTCAGAATCTTGGACAGTA | 0.482

---

EXPERIMENTAL_TARGET: IGLL1
EXPERIMENT_SUMMARY: pooled miR-30 sensor sort-seq; sequence = guide strand
SETTINGS: shRNA
Reported sensor-assay potency score (higher = more potent) values are given for each entry in this list.
PARAMETER_MEASURED: sensor-assay potency score (higher = more potent)

INPUT_SEQUENCE | ENDPOINT_VALUE
TTGTTGTTGCTCTGTTTGGAGG | -1.19
TGAGACACACCAGTGTAGCCTT | 0.221
TGCTCTGCGATGCAGCTGTTGG | -1.49
TCAGGTAGCTGCTGGCCGCGTA | -0.554
TAGCCTTGTTGGCTTGGAGCTC | -0.995
TACTTGTTGTTGCTCTGTTTGG | -0.977
TACCACGGCCAGACCCAGCAGC | -0.916
TGCAGCTGTTGGGCGCAGCAGG | -1.51

---

EXPERIMENTAL_TARGET: AGBL5
EXPERIMENT_SUMMARY: pooled miR-30 sensor sort-seq; sequence = guide strand
SETTINGS: shRNA
Measured sensor-assay potency score (higher = more potent) accompanies every entry in the list below.
PARAMETER_MEASURED: sensor-assay potency score (higher = more potent)

INPUT_SEQUENCE | ENDPOINT_VALUE
TTGTAGTTGCATTCAAGTGTGT | 0.25
TTCTTCTCTGAGAAATTGCAGC | -0.823
TAGATTAGTAAGGCTGCTGTGC | -0.537
TTTGGAAGCATGTCCATGCAGG | -0.608
TTTCAGCACAGTCTGGTCGGGT | -0.447
TTGAAGACAAAGCTAGATGGAG | -0.419
ATCTACACGAAGTCCATCCAGA | -1.07

---

EXPERIMENTAL_TARGET: AP1S1
EXPERIMENT_SUMMARY: pooled miR-30 sensor sort-seq; sequence = guide strand
SETTINGS: shRNA
In this scheme, each record receives a class according to its sensor-assay potency score (higher = more potent); the ranges are group 1 = under -0.9, group 2 = from -0.9 up to -0.5, group 3 = -0.5 and over

INPUT_SEQUENCE | ASSIGNED_CATEGORY
TAAGAGCTCCACGTATCGGTGG | group 3
TTTGAGGTCCCTCCACTCCAGG | group 1
ATCTCTTATAGACAACTTTGAG | group 1
TTTGTCTAAGAGCTCCACGTAT | group 2
TGTGATGAGCTCATTGTCTTGG | group 3
TCGCGCACCATCTTCTTCCGTT | group 3
TTCAGCACACTCTTCTTGGAGG | group 2
ATAGACAACTTTGAGGTCCCTC | group 3
TCTTATAGACAACTTTGAGGTC | group 3
TTGAAGATGATGTCCAGCTCGC | group 3
TCCAGCTCGCACACACTGCCAA | group 1
TTGTCTAAGAGCTCCACGTATC | group 1
TTTCAGCACACTCTTCTTGGAG | group 2
TTGCAGTAGGTCAGCCTGCTCG | group 2
TCTCTTATAGACAACTTTGAGG | group 1

---

EXPERIMENTAL_TARGET: ZSCAN2
EXPERIMENT_SUMMARY: pooled miR-30 sensor sort-seq; sequence = guide strand
SETTINGS: shRNA
// values below are reported sensor-assay potency score (higher = more potent)
PARAMETER_MEASURED: sensor-assay potency score (higher = more potent)

INPUT_SEQUENCE | ENDPOINT_VALUE
TTAGATTGGAGTTGTAACTAAA | -0.577
TTGAGGAGGTTGGAGCTCCAGC | -0.932
TTTCCGAGAATATCTTACGTGA | -0.583
TTCATTCTCAAACATGTCTTGA | -0.592
TTGTAGTATTTCTCTCCTGTGT | -0.38
TAAAGCTTTTTCCACATTCATC | -1.45
TATCTCAAAATCACTGTCCTGA | 0.962
TAGTATACAAAAGCTACCCGAC | -0.627
TTCACTGTCCTGAAGGGTCTGG | 0.109

---

EXPERIMENTAL_TARGET: MAGEA2B
EXPERIMENT_SUMMARY: pooled miR-30 sensor sort-seq; sequence = guide strand
SETTINGS: shRNA
PARAMETER_MEASURED: sensor-assay potency score (higher = more potent)

INPUT_SEQUENCE | ENDPOINT_VALUE
TCTTGCATGAGCAGCTTCCTGG | -1.1
ATTTCTGAGGACACTCTCCAGC | -1.24
TTAGTGTATGGTGCAGGACTTT | -1.05
AAATGTGAGGTTCTCCACCGAT | -0.397
TAGTGTATGGTGCAGGACTTTC | -1.11
TCTTCCTACTGATTGCTGCTTG | -0.703
TCCAGGTCGGGAAACATTCTTG | -1.23

FYI, the data here is from the OligoGym collection.
